GI50 values for the compounds below.
# Assayed Target: MEF-IGF1R cells (stable clone transfected with hIGF-1R) (Homo sapiens, UniProt P08069)
# Sequence (P08069 whole entry, change not shown): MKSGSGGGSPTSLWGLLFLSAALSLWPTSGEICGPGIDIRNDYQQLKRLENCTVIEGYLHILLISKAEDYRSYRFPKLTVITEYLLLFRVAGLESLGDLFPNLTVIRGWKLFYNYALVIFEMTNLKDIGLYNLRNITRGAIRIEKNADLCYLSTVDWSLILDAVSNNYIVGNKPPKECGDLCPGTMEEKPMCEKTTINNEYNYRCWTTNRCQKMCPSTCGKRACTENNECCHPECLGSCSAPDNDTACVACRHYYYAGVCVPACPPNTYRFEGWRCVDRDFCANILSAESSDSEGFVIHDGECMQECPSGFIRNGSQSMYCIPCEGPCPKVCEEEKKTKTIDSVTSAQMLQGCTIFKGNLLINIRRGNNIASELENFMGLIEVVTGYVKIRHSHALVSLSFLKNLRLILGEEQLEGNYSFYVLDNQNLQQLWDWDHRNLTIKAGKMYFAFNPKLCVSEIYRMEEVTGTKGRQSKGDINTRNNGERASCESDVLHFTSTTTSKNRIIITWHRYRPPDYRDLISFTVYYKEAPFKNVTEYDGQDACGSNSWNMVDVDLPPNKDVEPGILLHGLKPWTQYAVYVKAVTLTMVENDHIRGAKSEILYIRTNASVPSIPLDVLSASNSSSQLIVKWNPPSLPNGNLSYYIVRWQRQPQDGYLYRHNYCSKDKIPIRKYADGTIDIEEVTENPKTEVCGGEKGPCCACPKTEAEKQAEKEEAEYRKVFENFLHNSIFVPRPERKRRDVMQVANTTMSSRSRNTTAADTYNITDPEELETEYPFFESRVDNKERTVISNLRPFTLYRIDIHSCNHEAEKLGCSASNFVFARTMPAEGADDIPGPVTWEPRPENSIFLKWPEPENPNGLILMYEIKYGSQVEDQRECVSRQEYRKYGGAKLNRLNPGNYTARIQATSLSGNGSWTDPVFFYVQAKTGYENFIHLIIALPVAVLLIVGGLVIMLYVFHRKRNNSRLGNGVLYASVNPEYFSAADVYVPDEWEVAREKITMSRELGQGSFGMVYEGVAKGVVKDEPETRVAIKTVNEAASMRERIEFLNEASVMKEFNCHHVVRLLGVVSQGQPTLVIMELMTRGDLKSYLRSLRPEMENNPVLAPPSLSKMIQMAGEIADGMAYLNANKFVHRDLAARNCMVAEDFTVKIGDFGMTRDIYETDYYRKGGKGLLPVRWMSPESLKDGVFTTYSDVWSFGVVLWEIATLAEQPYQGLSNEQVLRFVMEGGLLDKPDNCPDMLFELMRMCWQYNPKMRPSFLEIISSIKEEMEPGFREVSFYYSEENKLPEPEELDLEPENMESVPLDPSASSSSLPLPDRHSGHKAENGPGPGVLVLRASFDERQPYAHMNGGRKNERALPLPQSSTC
# Test Name: Proliferation/viability of MEF-IGF1R (Test C), [14C]thymidine incorporation
# Format: cell-based
# Experimental Conditions: rhIGF1 100 ng/mL, 72 hours, read-out: Test C IC50
Quantity Measured: GI50

• CC(C)(C)c1ccc(N2C(=O)N(Cc3ccnc(NC(=O)NC4CC4)c3)C(C)(C)C2=O)cc1 [Example 13] = 10 to 100 nM
• CC(C)(C)c1ccc(N2C(=O)N(Cc3ccnc(Nc4ccc(Cl)nc4)c3)C(C)(C)C2=O)cc1 [Example 31L] = 10 to 100 nM
• CC1(C)CN(C(=O)CNC2CCCC2)c2cc(N3C(=O)N(Cc4ccnc(Nc5cccnc5)c4)C(C)(C)C3=O)ccc21 [Example 4] = < 10 nM
• COC(=O)Nc1cc(CN2C(=O)N(c3ccc(C(C)(C)C)cc3)C(=O)C2(C)C)ccn1 [Example 31Q] = 10 to 100 nM
• CC(C)(C)c1ccc(N2C(=O)N(Cc3ccnc(Nc4cncnc4)c3)C(C)(C)C2=O)cc1 [Example 7] = > 100 nM
• CC(C)NCC(=O)N1CC(C)(C)c2ccc(N3C(=O)N(Cc4ccnc(NC(=O)N(C)C)c4)C(C)(C)C3=O)cc21 [Example 31E] = 10 to 100 nM
• CN(C)CC(=O)N1CC(C)(C)c2ccc(N3C(=O)N(Cc4ccnc(NC(=O)N(C)C)c4)C(C)(C)C3=O)cc21 [Example 31C] = 10 to 100 nM
